Data credit: the NIST ThermoML archive (doi:10.1021/acs.jced.8b00583)

Reported surface tension liquid-gas by item:
- ASSAY CONDITIONS: 328.15 K; Liquid; Maximal bubble pressure
Numbers after ± are expanded uncertainties.

Consider the following illustrative entries.
CC(=O)O.CCCCN [butylammonium acetate] :: 29.1 ± 0.3 mN/m
CCC(=O)[O-].CCCC[NH3+] [butylammonium propanoate] :: 25.9 ± 0.3 mN/m
CCCC(=O)[O-].CCCC[NH3+] [n-butylammonium butanoate] :: 23.6 ± 0.3 mN/m

Shifting focus to the compound that follows.
Note down surface tension liquid-gas recorded for CCCC[NH3+].O=C[O-] [butylammonium formate]
30.6 ± 0.3 mN/m

###

A collection of compounds and their measured surface tension liquid-gas
- ASSAY CONDITIONS: 333.15 K; Liquid; Maximal bubble pressure
Express it in mN/m; write the number only.

CCCC[NH3+].O=C[O-] [butylammonium formate] :: 30.2
CCCC(=O)[O-].CCCC[NH3+] [n-butylammonium butanoate] :: 23.4

For the compound CCC(=O)[O-].CCCC[NH3+] [butylammonium propanoate] , give its measured surface tension liquid-gas value.
25.6

Quick one: give measured surface tension liquid-gas for CC(=O)O.CCCCN [butylammonium acetate]
28.8

###

// reported mass density per item
- ASSAY CONDITIONS: 318.15 K; 100 kPa; Liquid; Vibrating tube method
Your answer is read as kg/m3, so omit the unit and give the number.

CC(=O)O.CCCCN [butylammonium acetate] :: 943.73
CCCC[NH3+].O=C[O-] [butylammonium formate] :: 961.21
CCCC(=O)[O-].CCCC[NH3+] [n-butylammonium butanoate] :: 893.32

Next up:
Return reported mass density. Input compound: CCC(=O)[O-].CCCC[NH3+] [butylammonium propanoate]
918.77

###

- ASSAY CONDITIONS: 328.15 K; 100 kPa; Liquid; Capillary tube (Ostwald / Ubbelohde) method
QUANTITY: viscosity (mPa·s)
State the answer as a number, implicitly in mPa·s.

Solved entries:
CCC(=O)[O-].CCCC[NH3+] [butylammonium propanoate] :: 128.4
CCCC[NH3+].O=C[O-] [butylammonium formate] :: 30.62
CC(=O)O.CCCCN [butylammonium acetate] :: 95.03

Would you kindly look at the next entry?
Please supply the value of reported viscosity for the item CCCC(=O)[O-].CCCC[NH3+] [n-butylammonium butanoate]
154.43

###

- ASSAY CONDITIONS: 293.15 K; Liquid; Maximal bubble pressure
± gives the expanded uncertainty stated by the source.
Quick reference: surface tension liquid-gas of the listed items.

CCCC[NH3+].O=C[O-] [butylammonium formate] :: 33.8 ± 0.3 mN/m

Provide only the value of recorded surface tension liquid-gas for CCC(=O)[O-].CCCC[NH3+] [butylammonium propanoate]
28.1 ± 0.3 mN/m

Output surface tension liquid-gas of CC(=O)O.CCCCN [butylammonium acetate]
31.5 ± 0.3 mN/m

Using known records, supply surface tension liquid-gas for CCCC(=O)[O-].CCCC[NH3+] [n-butylammonium butanoate]
25.7 ± 0.3 mN/m

###

- ASSAY CONDITIONS: 293.15 K; 100 kPa; Liquid; Alternating current cell with electrodes
QUANTITY: electrical conductivity (S/m)
Kindly provide the numeric value in S/m only, without the unit symbol.

Use these answered entries as a reference point.
CCC(=O)[O-].CCCC[NH3+] [butylammonium propanoate] :: 0.049
CCCC[NH3+].O=C[O-] [butylammonium formate] :: 0.287
CC(=O)O.CCCCN [butylammonium acetate] :: 0.051

// fetch electrical conductivity given entry CCCC(=O)[O-].CCCC[NH3+] [n-butylammonium butanoate]
0.031
